Biological target: T1, constitutively active human CCK-B/gastrin receptor mutant MH162 (^325L→E) (human, UniProt P32239 1-447)
T1 construct: Transiently expressed in COS-7 cells; also called MH162 Mutant; ^325L→E mutant
T1 sequence: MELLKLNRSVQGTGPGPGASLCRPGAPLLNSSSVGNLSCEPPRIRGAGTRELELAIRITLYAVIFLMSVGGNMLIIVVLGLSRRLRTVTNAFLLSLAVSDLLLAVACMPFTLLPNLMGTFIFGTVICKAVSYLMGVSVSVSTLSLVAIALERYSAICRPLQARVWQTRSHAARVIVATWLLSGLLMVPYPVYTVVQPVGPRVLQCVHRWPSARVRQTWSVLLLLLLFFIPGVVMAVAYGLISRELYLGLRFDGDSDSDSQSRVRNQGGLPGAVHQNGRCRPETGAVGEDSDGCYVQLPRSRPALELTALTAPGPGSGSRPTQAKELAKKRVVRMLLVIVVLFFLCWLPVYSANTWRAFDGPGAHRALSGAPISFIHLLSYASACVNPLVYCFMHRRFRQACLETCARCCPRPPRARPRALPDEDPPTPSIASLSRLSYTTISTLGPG
Test: ^125I-CCK-8 competition binding on transfected COS-7 cells
Ends that are not written are not given here.
METRIC_NAME: pKi
# pKi = -log10(concentration in molar units)

Output pKi of QGPWLEEEEEAYGWMDF (peptide, UniProt P01350 76-92, looked up, not fully specified (residue 1, C-terminus), domain: gastrin-17) [Gastrin I (unsulphated gastrin-17)]
9.10
